Target: CYP2C8 (Homo sapiens, UniProt P10632)
Sequence (P10632 whole entry): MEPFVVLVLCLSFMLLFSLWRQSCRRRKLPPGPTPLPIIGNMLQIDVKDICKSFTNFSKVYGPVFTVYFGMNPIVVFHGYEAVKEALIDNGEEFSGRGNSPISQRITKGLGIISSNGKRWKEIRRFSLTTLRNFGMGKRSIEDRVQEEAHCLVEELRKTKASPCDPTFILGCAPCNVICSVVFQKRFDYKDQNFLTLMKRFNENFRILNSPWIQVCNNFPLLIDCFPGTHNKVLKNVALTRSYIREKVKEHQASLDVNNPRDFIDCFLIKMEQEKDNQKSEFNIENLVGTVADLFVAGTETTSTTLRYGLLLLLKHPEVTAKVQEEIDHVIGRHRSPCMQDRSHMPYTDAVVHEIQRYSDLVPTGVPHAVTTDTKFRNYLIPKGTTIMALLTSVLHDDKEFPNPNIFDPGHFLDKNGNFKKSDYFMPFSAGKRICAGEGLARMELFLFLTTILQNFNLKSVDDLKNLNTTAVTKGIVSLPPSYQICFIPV
Test: Inhibition of CYP2C8 in human liver microsomes assessed as enzyme residual activity incubated for 30 mins by LC-MS/MS analysis relative to control
Format: ADME
Conditions: read-out: Activity
quantity: activity at 0.5 h (%)
Write down the numeric answer in % and omit the unit.

Given the compound `Cc1ncc(C)n2nc(CC(=O)N3c4nc5ccccc5n4C[C@@H]3C)nc12` and test system CYP2C8 (Homo sapiens, UniProt P10632), the measured activity at 0.5 h is 99

###

Test: Drug uptake in mouse plasma at 0.1 mg/kg, po measured after 1 hr by LC-MS/MS analysis
Format: ADME, organism-based
quantity: concentration at 1 h (ng/mL)
Give just the number in ng/mL; leave the unit off.

> print(dat)
                      smiles.representation  units.of.measure  measurement
1  Cc1ncc(C)n2nc(CC(=O)N3c4nc5ccccc5n4C[C@@H]3C)nc12             ng/mL         0.91

# input for lookup
molecule `Cc1cc(C)n2nc(CCc3cc(O)n4nc5ccccc5c4n3)nc2n1` , concentration at 1 h observed: 0.59
